# protocol_text: protein stability index of a GFP-peptide fusion (GPS, HEK-293T) (PSI 1-6); higher = more stable;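 also: 24-mer peptide tiles fused after GFP, lentivirally expressed, FACS-sorted into six equal bins by GFP/DsRed ratio, decoded by Illumina sequencing, PSI is the read-weighted mean bin number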
# experimental_setup: treatment: DMSO; c terminus: a fixed tail appended
Listing: protein stability index of selected sequences
Would you mind answering with just the numeric figure?

What the record says about YGNGMRKSPEMPVILEVSLEGSHD [RTP4] : protein stability index is 3.58

What the record says about RRQARREAEADKPRRLGRLKYQAP [NOP53] : protein stability index is 4.5

What the record says about TGTALRFRVLCTAPAKYTVFDAEG [MOSPD3] : protein stability index is 2.49

====

# protocol_text: protein stability index of a GFP-peptide fusion (GPS, HEK-293T) (PSI 1-6); higher = more stable
# experimental_setup: treatment: DMSO; c terminus: a fixed tail appended
Listing: protein stability index of selected sequences

What the record says about LFQIDVYDFMNSAFSPIVILTERV [MIA2] : protein stability index is 2.75

What the record says about HEKERPEHKSLESLADGGSASPIK [FANCE] : protein stability index is 5.49

What the record says about LKLLNVLEEYITDEQKEEEEEEGE [FAM9B] : protein stability index is 4.94

What the record says about KAHETLHQSLSLASSPKGTIENIL [CDC25A] : protein stability index is 3.55

What the record says about PQLKKESELPFVPNYLANPAFPFI [ANKRD40] : protein stability index is 2.82

====

Listing: protein stability index of selected sequences
# protocol_text: protein stability index of a GFP-peptide fusion (GPS, HEK-293T) (PSI 1-6); higher = more stable
# experimental_setup: treatment: MLN4924 1 uM, 8 h; c terminus: a fixed tail appended

{"residue_string": "LNPHIHLMGDESACIAYIRITQYL [CAMK2A]", "protein stability index": 2.71}
{"residue_string": "RDLIPPHVNFSHLTTKDYMEMYNV [SLC6A17]", "protein stability index": 3.23}
{"residue_string": "NVLKSYIGLGHIYSGTFALIGAAA [CLCN6]", "protein stability index": 3.04}
{"residue_string": "DEQKEEEEEEGEEEELIRIFQEQQ [FAM9B]", "protein stability index": 5.47}
{"residue_string": "KDQRNPPSLGRVLPDPREACGSSS [RBMY1A1]", "protein stability index": 5.18}

What the record says about CFEASDCKESSPMPVICGPEENYP [NANOGP8] : protein stability index is 4.24

What the record says about VKALEDFEDLCDRVFSDEDSELDN [FAM9B] : protein stability index is 5.28

====

# protocol_text: protein stability index of a GFP-peptide fusion (GPS, HEK-293T) (PSI 1-6); higher = more stable
# experimental_setup: treatment: MLN4924 1 uM, 8 h; c terminus: a fixed tail appended
Returns 1.0 if the recorded protein stability index is greater than or equal to 4, and 0.0 otherwise.

{"residue_string": "RNVRERIAKNLVEKGILTTEKQNF [GOLPH3L]", "cat": 0.0}
{"residue_string": "ENMDLNKIDDLMQEITEQQDIAQE [CHMP4C]", "cat": 1.0}
{"residue_string": "DSNMPHFQTLQAIVSHFQKLFDVP [CEP70]", "cat": 0.0}
{"residue_string": "HNDRVQALSYAQHTRQLISCGGDG [WDFY2]", "cat": 0.0}
{"residue_string": "WCSVAYWEHRTRVGRLYAVYDQAV [SMAD6]", "cat": 0.0}
{"residue_string": "GMLKEGVRLDRVRGGRQKYKRRID [ESRRG]", "cat": 1.0}
{"residue_string": "HLGCMHYTVRAPVGVAGLISPWNL [ALDH8A1]", "cat": 0.0}
{"residue_string": "IETEDQIDKKPVSEKTDESDTIPY [MIA2]", "cat": 1.0}

// query Hello, I need to know if YLELDRLVWRNSIRSSFISSLSFF [FBXO39] has measured protein stability index not below 4. Thanks!
// result 0.0

// query Hello, I need to know if AYQHSGHLESKDINQEELRALEEV [C10orf62] has measured protein stability index not below 4. Thanks!
// result 1.0

// query Hello, I need to know if EASGYVDRDMFFKICESLNVPVDD [EFHC1] has measured protein stability index not below 4. Thanks!
// result 1.0

====

# protocol_text: protein stability index of a GFP-peptide fusion (GPS, HEK-293T) (PSI 1-6); higher = more stable
# experimental_setup: treatment: MLN4924 1 uM, 8 h; c terminus: a fixed tail appended
Returns Fulfilled if the recorded protein stability index is greater than or equal to 4, and Not fulfilled otherwise.

Past entries and their recorded results:
{"residue_string": "LSASSPRMLHRSTQTTNDGVCQSM [ZMYND11]", "cat": "Fulfilled"}
{"residue_string": "DIRAKKIASIADVCESMKEQLLVL [HNF4A]", "cat": "Not fulfilled"}
{"residue_string": "QPSKSHKKVLKKMLKFLAKGEVPK [ATE1]", "cat": "Not fulfilled"}

// query Hello, I need to know if EAAKQMRSRGKVLKTKDGKLPFCA [CPOX] has measured protein stability index not below 4. Thanks!
// result Not fulfilled

// query Hello, I need to know if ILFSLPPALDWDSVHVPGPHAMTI [PTPN9] has measured protein stability index not below 4. Thanks!
// result Not fulfilled

// query Hello, I need to know if RPVSCSGRDALLDQIRQGIQLKSV [WASL] has measured protein stability index not below 4. Thanks!
// result Fulfilled

// query Hello, I need to know if SFSSLEPDNEQLMEEVISPRQVSY [IQUB] has measured protein stability index not below 4. Thanks!
// result Fulfilled

// query Hello, I need to know if LYKSLKTLSAELVPWLNLKKQDEN [CEP70] has measured protein stability index not below 4. Thanks!
// result Not fulfilled

// query Hello, I need to know if DINLSVRKLLNRHNIVFGDYTWTE [TRIP13] has measured protein stability index not below 4. Thanks!
// result Not fulfilled

// query Hello, I need to know if ILTLTMISLFFLIIYMGSFMLMLL [CDS1] has measured protein stability index not below 4. Thanks!
// result Not fulfilled

// query Hello, I need to know if HSAVARISRAQYNALTLTFQRAMH [STX11] has measured protein stability index not below 4. Thanks!
// result Not fulfilled

// query Hello, I need to know if DGFFYFFHGTRQYKFDPKTKRILT [MMP1] has measured protein stability index not below 4. Thanks!
// result Not fulfilled

// query Hello, I need to know if DNLLRSTQKLSHSTKPSGSPLEEK [MATN2] has measured protein stability index not below 4. Thanks!
// result Fulfilled

// query Hello, I need to know if KLEEERAKLHDVELHQVAERVEAL [GNB5] has measured protein stability index not below 4. Thanks!
// result Fulfilled

====

# protocol_text: protein stability index of a GFP-peptide fusion (GPS, HEK-293T) (PSI 1-6); higher = more stable
# experimental_setup: treatment: MLN4924 1 uM, 8 h; c terminus: a fixed tail appended
Returns 1.0 if the recorded protein stability index is greater than or equal to 3, and 0.0 otherwise.

Past entries and their recorded results:
{"residue_string": "HMESRMVTETEETQEKKAESKEPI [SDE2]", "cat": 1.0}
{"residue_string": "QVLRNNPDALSDVGEVPYWVLEPV [ELOA2]", "cat": 1.0}
{"residue_string": "DLENRCQSLTEDLEFRKSMYEEEI [LMNB1]", "cat": 1.0}
{"residue_string": "GPPRAPGRSGWPAGGAPGSPIPSP [HES6]", "cat": 1.0}
{"residue_string": "EPSQMLKHAVVNLINYQDDAELAT [CTNNB1]", "cat": 1.0}
{"residue_string": "EVKTRHSEKSQREDEEEEEGENYQ [CHGB]", "cat": 1.0}
{"residue_string": "PLWQCYLGRFNDINVPIRLECVKF [PDS5B]", "cat": 0.0}
{"residue_string": "TFSMPSDSHVSSCSEDWVGYQRKC [CD69]", "cat": 1.0}

// query Hello, I need to know if LSPAGSSQEAADTPDTRHPCSLGS [YJU2B] has measured protein stability index not below 3. Thanks!
// result 1.0

// query Hello, I need to know if QASAAPAAPLPERNSLSAIFNNVM [SLC29A1] has measured protein stability index not below 3. Thanks!
// result 1.0

// query Hello, I need to know if GHGIVGTIVKARDKLYHPECFMCS [PDLIM4] has measured protein stability index not below 3. Thanks!
// result 0.0

// query Hello, I need to know if RVLSPLHRGPSGHTEASAQRSHMG has measured protein stability index not below 3. Thanks!
// result 1.0

// query Hello, I need to know if CLKVGMRREAVQRGRMPPTQPTHG [NR2F2] has measured protein stability index not below 3. Thanks!
// result 1.0

// query Hello, I need to know if WHDTCFVCAICQINLEGKTFYSKK [PDLIM7] has measured protein stability index not below 3. Thanks!
// result 0.0

// query Hello, I need to know if PIMAKEGQLYAMELQGFWMDIGQP [GMPPB] has measured protein stability index not below 3. Thanks!
// result 0.0

// query Hello, I need to know if GTTLRGRSDADLVVFLSPLTTFQD [OAS1] has measured protein stability index not below 3. Thanks!
// result 0.0

// query Hello, I need to know if ETAPLTLESLPTDPLLLILSFLDY [FBXO3] has measured protein stability index not below 3. Thanks!
// result 0.0

// query Hello, I need to know if LAKTGEGSYGVVFKCRNKTSGQVV [CDKL4] has measured protein stability index not below 3. Thanks!
// result 0.0

// query Hello, I need to know if NAILQLVKKYKSMKLEKEEFVTLK [ESRRG] has measured protein stability index not below 3. Thanks!
// result 0.0

// query Hello, I need to know if KIESLMDEIEFLKKLHEEELRDLQ [PRPH] has measured protein stability index not below 3. Thanks!
// result 1.0

// query Hello, I need to know if RSLQDGTREGFGHSTSLKVPLARS [LCOR] has measured protein stability index not below 3. Thanks!
// result 1.0

// query Hello, I need to know if VIQAVQKSEEGHPFKAYLDVDITL [RTN3] has measured protein stability index not below 3. Thanks!
// result 0.0

// query Hello, I need to know if VHSERKLLPLVTLCDGNPRRPSPV [SCNN1D] has measured protein stability index not below 3. Thanks!
// result 1.0
